- Target entity: T1, MMP9 catalytic domain (UniProt P14780 107-444)
- T1 construct: Matrix Metalloproteinase 9 (MMP9), catalytic domain; source: expressed recombinantly and purified as published before [12]
- T1 sequence (P14780 107-444): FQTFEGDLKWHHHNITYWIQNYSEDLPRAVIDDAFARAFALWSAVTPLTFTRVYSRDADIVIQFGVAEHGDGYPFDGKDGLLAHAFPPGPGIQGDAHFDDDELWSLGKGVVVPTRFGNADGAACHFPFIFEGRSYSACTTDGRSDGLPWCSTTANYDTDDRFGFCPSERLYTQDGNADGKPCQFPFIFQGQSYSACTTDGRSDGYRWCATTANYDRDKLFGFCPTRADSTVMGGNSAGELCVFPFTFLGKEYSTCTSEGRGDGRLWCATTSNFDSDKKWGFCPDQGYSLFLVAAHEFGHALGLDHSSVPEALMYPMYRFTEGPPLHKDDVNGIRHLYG
- Experiment summary: enzyme activity (inhibition) assay with a fluorogenic substrate; various concentrations of N-TIMP2 pre-incubated 1 hour with MMP9 (0.2 nM) or MMP14 (0.5 nM) in 50 mM Tris-HCl, 0.15 M NaCl, 10 mM CaCl2, 0.02% Brij 35, pH 7.5, 37°C; fraction of enzyme activity fitted to a 1:1 binding model to give Kd
- Measurement context: both partners purified
Kd values by entry

Binder	Kd (nM)
N-TIMP2 S68Y (domain or fragment, human, UniProt P16035 27-153, looked up, TIMP2, human, N-terminal domain, residues 1-127) CSCSPVHPQQAFCNADVVIRAKAVSEKEVDSGNDIYGNPIKRIQYEIKQIKMFKGPEKDIEFIYTAPYSAVCGVSLDVGGKKEYLIAGKAEGDGKMHITLCDFIVPWDTLSTTQKKSLNHRYQMGCE	0.8
N-TIMP2 N38Q (domain or fragment, human, UniProt P16035 27-153, looked up, TIMP2, human, N-terminal domain, residues 1-127) CSCSPVHPQQAFCNADVVIRAKAVSEKEVDSGNDIYGQPIKRIQYEIKQIKMFKGPEKDIEFIYTAPSSAVCGVSLDVGGKKEYLIAGKAEGDGKMHITLCDFIVPWDTLSTTQKKSLNHRYQMGCE	2.4
N-TIMP2 H97R (domain or fragment, human, UniProt P16035 27-153, looked up, TIMP2, human, N-terminal domain, residues 1-127) CSCSPVHPQQAFCNADVVIRAKAVSEKEVDSGNDIYGNPIKRIQYEIKQIKMFKGPEKDIEFIYTAPSSAVCGVSLDVGGKKEYLIAGKAEGDGKMRITLCDFIVPWDTLSTTQKKSLNHRYQMGCE	0.5
N-TIMP2 I35E (domain or fragment, human, UniProt P16035 27-153, looked up, TIMP2, human, N-terminal domain, residues 1-127) CSCSPVHPQQAFCNADVVIRAKAVSEKEVDSGNDEYGNPIKRIQYEIKQIKMFKGPEKDIEFIYTAPSSAVCGVSLDVGGKKEYLIAGKAEGDGKMHITLCDFIVPWDTLSTTQKKSLNHRYQMGCE	2.5
